# experimental setup: human, in vivo
measured property: half-life

substance	measured
Ac-KPSSPPEE-NH2 [A6, Ac-KPSSPPEE-NH2]	1.8 to 2 h

The values you see were collected from patent US20190381127A1.
